system: RXF 393; assay: NCI tumour cell line growth inhibition, 48 h
Activity calls are given as the source filed them. Rule as the data show it: active = GI50 up to about 1.1 µM and inactive = higher.
Could you please pick one outcome from this set? class 1 for active, class 0 for inactive

Write down the call the test reported for this molecule. Item: NC(=O)NO [HYDROXYUREA]
class 0

Please let me know the test result on file for NNc1[nH]c(=S)[nH]c1C(N)=O .
class 0

Field: outcome | Entry: N#Cc1sc2c(c1O)c(=O)n(-c1ccccc1)c(=S)n2-c1ccccc1
class 0

Could you check what this test reported for COc1cccc2c1C(=O)c1c(O)c3c(c(O)c1C2=O)C[C@](O)(C(=O)CO)CC3OC1CC(N)C(OC2CCCCO2)C(C)O1 (stereo not given in full) ?
class 1

Look up the recorded call for Nc1ccn(CCNCCn2cnc3nc(N)[nH]c(=O)c32)c(=O)n1 in this test.
class 0
